Taken from ChEMBL document CHEMBL1146483.

assay: Cytotoxicity against concanavalin-stimulated human lymphocytes cells assessed as cell viability at 50 ng/mL after 4 days by trypan blue exclusion method; type: cell-based, Lymphocyte; settings: read-out: Activity
RECORDED METRIC: viability at 96 h, 50 ng/mL (%)
Numbers only, in %.

viability at 96 h, 50 ng/mL reading for COC(=O)[C@@]12OC[C@]34[C@H]([C@@H](O)[C@@H]1O)[C@@]1(C)CC(=O)C(O)=C(C)[C@@H]1C[C@H]3OC(=O)[C@H](OC(=O)/C=C(\C)C(C)C)[C@@H]24 [BRUCEANTIN] : 90
